# target.under.test: wild type human RORγt LBD (Homo sapiens)
# Construct: expressed in transfected cells; host or cells: HEK293T
# Sequence (P51449 258-518): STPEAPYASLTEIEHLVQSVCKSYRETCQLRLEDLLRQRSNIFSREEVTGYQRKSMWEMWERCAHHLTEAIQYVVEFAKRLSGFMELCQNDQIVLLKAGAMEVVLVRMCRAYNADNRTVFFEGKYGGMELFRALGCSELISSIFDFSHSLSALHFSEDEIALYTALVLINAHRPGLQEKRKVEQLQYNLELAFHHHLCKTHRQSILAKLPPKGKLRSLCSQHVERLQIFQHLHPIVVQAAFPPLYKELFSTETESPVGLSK
# assay.name: RORγt (LBD) Reporter Assay (GAL4-luciferase, HEK293T cells)
# Type: cell-based
# measurement.parameters: 6 µM compound concentration; 6 µM
Reported RORγt (LBD) Reporter Assay, % inhibition @ 6 µM values follow for various compounds
reported.metric: RORγt (LBD) Reporter Assay, % inhibition @ 6 µM

compound: COc1nc2ccc(C(O)(c3ccc(C#N)cc3)c3cncn3C)cc2c(C#N)c1Cc1ccc(-n2cncn2)cc1 (single isomer, unassigned) [Example 15c]
target.under.test: wild type human RORγt LBD (Homo sapiens)
observed: 97%
//
compound: COc1c(Cc2ccccc2)c(C(F)(F)F)nc2ccc(C(O)(c3ccccn3)c3cncn3C)cc12 (single isomer, unassigned) [Example 98c]
target.under.test: wild type human RORγt LBD (Homo sapiens)
observed: 96%
//
compound: Cn1cncc1C(O)(c1ccc(C(F)(F)F)nc1)c1ccc2nc(C#N)c(Cc3ccc(F)cc3)c(C#N)c2c1 (single isomer, unassigned) [Example 53b]
target.under.test: wild type human RORγt LBD (Homo sapiens)
observed: 32%
//
compound: COc1nc2ccc(C(O)(c3ccc(C)nc3C)c3cnnn3C)cc2c(Cl)c1Cc1ccc(-n2cccn2)cc1 (single isomer, unassigned) [Example 17c]
target.under.test: wild type human RORγt LBD (Homo sapiens)
observed: 101%
//
compound: COc1nc2ccc(C(O)(c3ccc(C)nc3C)c3cncn3C)cc2c(Cl)c1Cc1ccc(C(F)(F)F)cc1 (single isomer, unassigned) [Example 88c]
target.under.test: wild type human RORγt LBD (Homo sapiens)
observed: 98%
//
compound: COc1nc2ccc(C(O)(c3ccc(C#N)cc3)c3cncn3C)cc2c(Cl)c1Cc1ccc(-n2cncn2)cc1 (single isomer, unassigned) [Example 14c]
target.under.test: wild type human RORγt LBD (Homo sapiens)
observed: 106%
//
compound: COc1nc2ccc(C(O)(c3cnnn3C)c3cnc(C)n3C)cc2c(C#N)c1Cc1ccc(F)cc1 (single isomer, unassigned) [Example 66c]
target.under.test: wild type human RORγt LBD (Homo sapiens)
observed: 90%
//
compound: CCc1nc2ccc(C(O)(c3ccc(C)nc3C)c3cnnn3C)cc2c(Cl)c1Cc1ccc(C(F)(F)F)cc1 (single isomer, unassigned) [Example 23c]
target.under.test: wild type human RORγt LBD (Homo sapiens)
observed: 97%
//
compound: Cn1cncc1C(O)(c1ccc(C(F)(F)F)nc1)c1ccc2nc(C#N)c(Cc3ccc(F)cc3)c(C#N)c2c1 (single isomer, unassigned) [Example 53c]
target.under.test: wild type human RORγt LBD (Homo sapiens)
observed: 74%
//
compound: CCc1nc2ccc(C(O)(c3cnnn3C)c3cnc(C)n3C)cc2c(Cl)c1Cc1ccc(C(F)(F)F)cc1 (single isomer, unassigned) [Example 25c]
target.under.test: wild type human RORγt LBD (Homo sapiens)
observed: 99%
//
compound: COc1nc2ccc(C(O)(c3ccc(F)cc3)C3CCN(C(C)=O)CC3)cc2c(Cl)c1Cc1ccc(F)cc1 (single isomer, unassigned) [Example 51b]
target.under.test: wild type human RORγt LBD (Homo sapiens)
observed: 46%
//
compound: COc1nc2ccc(C(O)(c3cnnn3C)C3CCN(C(C)=O)CC3)cc2c(Cl)c1Cc1ccc(C(F)(F)F)cc1 (single isomer, unassigned) [Example 74c]
target.under.test: wild type human RORγt LBD (Homo sapiens)
observed: 101%
